Reference for the values: patent US20230212304A1

MEASURED_TARGET: T1, cynomolgus monkey CTLA4-his protein (Acro biosystems, Cat#CT4-C5227) (cynomolgus monkey, UniProt G7PL88 36-161)
T1 construct: bought recombinant protein; also called Cynomolgus CTLA4-his; not shown: his tag
T1 sequence: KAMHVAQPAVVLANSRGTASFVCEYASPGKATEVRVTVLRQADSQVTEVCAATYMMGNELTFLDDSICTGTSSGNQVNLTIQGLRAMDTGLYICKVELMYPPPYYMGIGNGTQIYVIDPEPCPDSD
METHOD_DESCRIPTION: SPR, Biacore T200; antibody captured, CTLA4-his as analyte
Description: Un-reacted moieties on the biosensor surface were blocked with ethanolamine. […] The antigen-antibody association kinetics was followed for 2 minutes and the dissociation kinetics was followed for 10 minutes. The association and dissociation curves were fit to a 1:1 Langmuir binding model using BIAcore evaluation software.
EXPERIMENTAL_ENDPOINT: kon (M⁻¹ s⁻¹)
Numbers only, in M⁻¹ s⁻¹.

Field: example entries. Status: answers known.
{"columns": ["BINDER", "kon, M⁻¹ s⁻¹"],
 "data": [
  ["mouse anti-CTLA4 monoclonal antibody D1D5 (antibody, V domains shown, mouse mAb purified from hybridoma supernatant) VH: EVKLVESGGGLVKPGGSLKLSCAASGFTFSDYGMAWVRQAPGKGPEWVAFISNLAYSVYYADTETGRFTISREDAKNTLYLEMSSLRSEDTAMYYCARSGLPYAMDYWGQGTSVTVSS VL: DIQMTQTTSSLSASLGDRVTISCRASQDISNYLNWYQQKPDGTVKLLIYYISRLHSGVPSRFSGSGSGTDFSLTISNLEQEDIATYFCQQGRMLPWTFGGGTRLEIK", 101000],
  ["mouse anti-CTLA4 monoclonal antibody D1B8 (antibody, V domains shown, mouse mAb purified from hybridoma supernatant) VH: QIQLQQSGPELVKPGASVKISCKASGYTFTDYYINWVKQRPGQGLEWIGWIYPGNNNTRYNEKFKGKATLTIDTSSSTAFMHLSSLTSEDSAVYFCARYYFDYWGQGTTLTVSS VL: DIQMTQSPSSLSASLGERISLTCRASQEITGYLSWLQQKPDGTIKRLIYAASTLDSGVPQRFSGSRSGSDYSLTISSLESEDFADYYCLQYASYPRTFGGGTKLEIK", 451000]
]}

Query binder follows.
Which kon reading was recorded for the binder mouse anti-CTLA4 monoclonal antibody D1H4 (antibody, V domains shown, mouse mAb purified from hybridoma supernatant) VH: EVQLQQSGPVLVKPGASVKMSCKASGYTFTDYYMNWVKQSHGKSLEWIGAINPDHGGSSYNQKFKGKATLTVDKSSSTAYMELNSLTSEDSAVYYCARDGSIHYVMDDWGQGTSVTVSS VL: DIVMSQSPSSLTVSAGDKVTMSCKSSQSLLHSGNQKNYLAWYQQKPWQPPKLLIYGASTRESGVPDRFTGSGSGTDFTLTISSVQAEDLAVYYCQNDYGYPYTFGGGTKLEIK ?
580000
